Taken from patent US9115166B2.

Kindly supply the reported Sweetness Aftertaste values for the records listed here.
Assay: Quality of sweetness: sensory attributes scored on a 15-point unstructured line scale
Assay type: in vivo
Details: mean score, 15-point line scale, two replications, room temperature; same superscript letter = not significantly different (95%)
Marks after values point to notes of the source that are not given here.

Previously resolved entries follow.
| MOLECULE | Sweetness Aftertaste |
| --- | --- |
| CC1(C(=O)O)CCCC2(C)C3CCC4(OC5OC(CO)C(O)C(OC6OC(CO)C(O)C(O)C6O)C5OC5OC(CO)C(O)C(O)C5O)CC3(CCC12)CC4(C)O (stereo not drawn) | 5.38^ab |
| CC1=CC23CCC4C(C)(C(=O)OC5OC(CO)C(O)C(O)C5O)CCCC4(C)C2CCC1(OC1OC(CO)C(O)C(OC2OC(CO)C(O)C(O)C2O)C1OC1OC(CO)C(O)C(O)C1O)C3 (stereo not drawn) | 0.41^d |
| OC[C@H]1O[C@@](CO)(O[C@H]2O[C@H](CO)[C@@H](O)[C@H](O)[C@H]2O)[C@@H](O)[C@@H]1O [Sucrose, sucrose, reference compound] | 4.76^b |
| CC1(C(=O)OC2OC(CO)C(O)C(O)C2O)CCCC2(C)C3CCC4(OC5OC(CO)C(O)C(OC6OC(CO)C(O)C(O)C6O)C5OC5OC(CO)C(O)C(O)C5O)CC3(CCC12)CC4(C)O (stereo not drawn) | 0.70^d |
| C=C1C[C@@]23CC[C@H]4[C@@](C)(CCC[C@@]4(C)C(=O)OC4OC(CO)C(O)C(O)C4O)[C@@H]2CC[C@]1(OC1OC(CO)C(O)C(OC2OC(CO)C(O)C(O)C2O)C1OC1OC(CO)C(O)C(O)C1O)C3 (stereo partly drawn) [Reb. A, Rebaudioside A] | 5.91^a |

# Sweetness Aftertaste (molecule: CC1=CC23CCC4C(C)(C(=O)O)CCCC4(C)C2CCC1(OC1OC(CO)C(O)C(OC2OC(CO)C(O)C(O)C2O)C1OC1OC(CO)C(O)C(O)C1O)C3 (stereo not drawn) ) is 4.85^b

###

Test: Quality of sweetness: sensory attributes scored on a 15-point unstructured line scale
Type: in vivo
Conditions: mean score, 15-point line scale, two replications, room temperature; same superscript letter = not significantly different (95%)
Marks after values point to notes of the source that are not given here.
MEASURE NAME: Black Licorice Flavor

Some compounds with recorded Black Licorice Flavor:
| COMPOUND | Black Licorice Flavor |
| --- | --- |
| CC1=CC23CCC4C(C)(C(=O)O)CCCC4(C)C2CCC1(OC1OC(CO)C(O)C(OC2OC(CO)C(O)C(O)C2O)C1OC1OC(CO)C(O)C(O)C1O)C3 (stereo not drawn) | 1.40^bc |
| CC1(C(=O)OC2OC(CO)C(O)C(O)C2O)CCCC2(C)C3CCC4(OC5OC(CO)C(O)C(OC6OC(CO)C(O)C(O)C6O)C5OC5OC(CO)C(O)C(O)C5O)CC3(CCC12)CC4(C)O (stereo not drawn) | 0.00^d |
| OC[C@H]1O[C@@](CO)(O[C@H]2O[C@H](CO)[C@@H](O)[C@H](O)[C@H]2O)[C@@H](O)[C@@H]1O [Sucrose, sucrose, reference compound] | 0.13^d |
| CC1=CC23CCC4C(C)(C(=O)OC5OC(CO)C(O)C(O)C5O)CCCC4(C)C2CCC1(OC1OC(CO)C(O)C(OC2OC(CO)C(O)C(O)C2O)C1OC1OC(CO)C(O)C(O)C1O)C3 (stereo not drawn) | 0.07^d |
| CC1(C(=O)O)CCCC2(C)C3CCC4(OC5OC(CO)C(O)C(OC6OC(CO)C(O)C(O)C6O)C5OC5OC(CO)C(O)C(O)C5O)CC3(CCC12)CC4(C)O (stereo not drawn) | 1.84^ab |

Next:
For record C=C1C[C@@]23CC[C@H]4[C@@](C)(CCC[C@@]4(C)C(=O)OC4OC(CO)C(O)C(O)C4O)[C@@H]2CC[C@]1(OC1OC(CO)C(O)C(OC2OC(CO)C(O)C(O)C2O)C1OC1OC(CO)C(O)C(O)C1O)C3 (stereo partly drawn) [Reb. A, Rebaudioside A] the listed Black Licorice Flavor is 2.31^a
